Below: a set of entries, each annotated with reported viability inhibition at highest dose.
- System: MCF-7
- assayMethodText: viability inhibition at highest dose (% inhibition); higher = more growth inhibition
- conditionSummary: 4-OH-tamoxifen in medium 1 µM; 72 h
Keep the answer to the number alone.

Consider the following illustrative entries.
N#Cc1ccc(COC[C@H]2O[C@@H](n3c(NCc4ccc(Cl)c(Cl)c4)nc4c(N)ncnc43)[C@H](O)[C@@H]2O)cc1 (drug 10000 nM)
49.6
O=NN(CCCl)C(=O)NC1CCCCC1 [Lomustine] (drug 10000 nM)
13.1
CC[C@H](CO)Nc1nc(NCc2ccccc2)c2ncn(C(C)C)c2n1 [Seliciclib (Roscovitine)] (drug 10000 nM)
17.2

Moving on to the next molecule.
(Q) If you can, please state the reported viability inhibition at highest dose value of CS(=O)(=O)CCNCc1ccc(-c2ccc3ncnc(Nc4ccc(OCc5cccc(F)c5)c(Cl)c4)c3c2)o1 [Lapatinib] (drug 1000 nM) .
(A) 17.5

---

- System: BT-474
- assayMethodText: drug sensitivity score (DSS) (DSS (dimensionless)); higher = more sensitive; extreme values may be limits of the assay
- conditionSummary: 4-OH-tamoxifen in medium 1 µM; 72 h
measuredAttribute: drug sensitivity score
Keep the answer to the number alone.

Consider the following illustrative entries.
COc1cc(CCc2cc(NC(=O)c3ccc(N4CC(C)NC(C)C4)cc3)n[nH]2)cc(OC)c1 (stereo not drawn) [AZD4547]
0
CC(=O)Nc1ccc(C(=O)Nc2ccccc2N)cc1 [Tacedinaline (CI-994)]
0

Moving on to the next molecule.
(Q) If you can, please state the reported drug sensitivity score value of N[C@@H](CSC(c1ccccc1)(c1ccccc1)c1ccccc1)C(=O)O [S-trityl-L-cysteine] .
(A) 1.41

---

- Tested on: BT-474
- assayMethodText: viability inhibition at highest dose (% inhibition); higher = more growth inhibition
- conditionSummary: 4-OH-tamoxifen in medium 0 µM; 72 h
Below: a set of entries, each annotated with reported viability inhibition at highest dose.
Keep the answer to the number alone.

(Q) Checklist item: viability inhibition at highest dose tested on BT-474, entry S=c1[nH]cnc2nc[nH]c12 [Mercaptopurine] (drug 10000 nM) , value?
(A) 3.7

(Q) Checklist item: viability inhibition at highest dose tested on BT-474, entry CO[C@H]1/C=C\C=C(/C)C(=O)NC2=CC(=O)C(NCCN(C)C)=C(C[C@@H](C)C[C@H](OC)[C@H](O)[C@@H](C)/C=C(\C)[C@@H]1OC(N)=O)C2=O [Alvespimycin (17-DMAG)] (drug 1000 nM) , value?
(A) 49

(Q) Checklist item: viability inhibition at highest dose tested on BT-474, entry CN1CCC(COc2cnc(-c3cccc(Cn4nc(-c5cccc(C#N)c5)ccc4=O)c3)nc2)CC1 (drug 1000 nM) , value?
(A) 2.72

(Q) Checklist item: viability inhibition at highest dose tested on BT-474, entry C=CCN(/C=C1/C(=O)O[C@H](COC)[C@@]2(C)C1=C(O)C(=O)C1=C2[C@H](OC(C)=O)C[C@]2(C)C(=O)CC[C@@H]12)CC=C [Sonolisib (PX-866)] (drug 10000 nM) , value?
(A) -6.97

(Q) Checklist item: viability inhibition at highest dose tested on BT-474, entry Cc1cc(Nc2cc(CN3CCOCC3)c3nc(C)c(Cc4ccc(Cl)cc4F)n3n2)n[nH]1 (drug 10000 nM) , value?
(A) 5.76

(Q) Checklist item: viability inhibition at highest dose tested on BT-474, entry Cn1cnc2c(F)c(Nc3ccc(Br)cc3F)c(C(=O)NOCCO)cc21 [MEK-162 (ARRY-162)] (drug 1000 nM) , value?
(A) -13.3

(Q) Checklist item: viability inhibition at highest dose tested on BT-474, entry CC(C)(C)c1cc(NC(=O)Nc2ccc(-c3cn4c(n3)sc3cc(OCCN5CCOCC5)ccc34)cc2)no1 [Quizartinib (AC220)] (drug 1000 nM) , value?
(A) -0.626

(Q) Checklist item: viability inhibition at highest dose tested on BT-474, entry O=C(O)C(=O)O.[NH-][C@@H]1CCCC[C@H]1[NH-].[Pt+2] [Oxaliplatin] (drug 10000 nM) , value?
(A) -9.5

(Q) Checklist item: viability inhibition at highest dose tested on BT-474, entry CN(N=O)C(=O)N[C@@H](C=O)[C@@H](O)[C@H](O)[C@H](O)CO [Streptozocin] (drug 10000 nM) , value?
(A) -7.13

(Q) Checklist item: viability inhibition at highest dose tested on BT-474, entry COc1cc(Nc2ncc3c(n2)-c2ccc(Cl)cc2C(c2c(F)cccc2OC)=NC3)ccc1C(=O)O [Alisertib (MLN8237)] (drug 10000 nM) , value?
(A) 11.6

(Q) Checklist item: viability inhibition at highest dose tested on BT-474, entry COc1cccc2c1C(=O)c1c(O)c3c(c(O)c1C2=O)C[C@@](O)(C(C)=O)C[C@@H]3O[C@H]1C[C@H](N)[C@H](O)[C@H](C)O1 [Daunorubicin] (drug 1000 nM) , value?
(A) 53.8

(Q) Checklist item: viability inhibition at highest dose tested on BT-474, entry COc1cc2c(cc1O)CC[C@@H]1[C@@H]2CC[C@]2(C)[C@@H](O)CC[C@@H]12 [2-methoxyestradiol (Panzem)] (drug 10000 nM) , value?
(A) 48.9

(Q) Checklist item: viability inhibition at highest dose tested on BT-474, entry O=P1(N(CCCl)CCCl)NCCCO1 (stereo not drawn) [Clafen (Cyclophosphamide, Endoxan)] (drug 40000 nM) , value?
(A) -4.59
